Listed next: entries and their corresponding pKi.
Target: plasmin (Homo sapiens)
Sequence (P00747 581-810 limits assumed): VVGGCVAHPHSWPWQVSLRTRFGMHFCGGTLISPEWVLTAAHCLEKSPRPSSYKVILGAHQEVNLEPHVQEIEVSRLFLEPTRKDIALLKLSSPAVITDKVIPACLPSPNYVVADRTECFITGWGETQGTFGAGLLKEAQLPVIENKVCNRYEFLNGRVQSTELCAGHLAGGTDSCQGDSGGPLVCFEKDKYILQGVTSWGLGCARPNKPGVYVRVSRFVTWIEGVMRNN
Sequence (P00747 97-580 partner limits assumed): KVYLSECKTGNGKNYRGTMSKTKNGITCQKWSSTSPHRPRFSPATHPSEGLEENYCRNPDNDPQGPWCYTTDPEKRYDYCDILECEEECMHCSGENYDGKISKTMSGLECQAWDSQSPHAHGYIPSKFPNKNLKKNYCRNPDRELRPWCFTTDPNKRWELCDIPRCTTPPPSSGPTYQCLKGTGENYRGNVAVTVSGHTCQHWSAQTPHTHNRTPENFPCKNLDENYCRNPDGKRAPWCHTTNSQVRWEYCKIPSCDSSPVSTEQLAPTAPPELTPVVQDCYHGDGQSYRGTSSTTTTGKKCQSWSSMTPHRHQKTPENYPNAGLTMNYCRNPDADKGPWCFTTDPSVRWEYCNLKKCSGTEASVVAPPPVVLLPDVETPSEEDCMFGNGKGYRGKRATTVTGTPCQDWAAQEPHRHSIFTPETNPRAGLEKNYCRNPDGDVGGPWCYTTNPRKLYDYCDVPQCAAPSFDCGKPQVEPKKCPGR
Test: Enzyme-kinetic determination of inhibition constants, plasmin (Chromozym PL)
Format: biochemical
Conditions: Tris-HCl buffer pH 8.0, Dixon, mean of at least two determinations; read-out: Ki Plasmin
pKi: −log10 of the molar value.
assayEndpoint: pKi

[[record]]
compound = "N=C(N)c1ccc(CNC(=O)[C@@H]2Cc3ccc(cc3)NC(=O)CCN3CCN(CCC(=O)Nc4ccc(cc4)C[C@@H](NC(=O)OCc4ccccc4)C(=O)N2)CC3)cc1 [Inhibitor 5]"
reportedvalue = 9.11

[[record]]
compound = "N=C(N)NCCCCNC(=O)[C@@H]1Cc2ccc(cc2)NC(=O)CCN2CCN(CCC(=O)Nc3ccc(cc3)C[C@@H](NS(=O)(=O)NC3CCCCC3)C(=O)N1)CC2 [Inhibitor 13]"
reportedvalue = 8.46

[[record]]
compound = "CC1(C)C(=O)Nc2ccc(cc2)C[C@@H](C(=O)NCc2ccc(C(=N)N)cc2)NC(=O)[C@H](NS(=O)(=O)Cc2ccccc2)Cc2ccc(cc2)NC(=O)C(C)(C)N2CCN1CC2 [Inhibitor 7]"
reportedvalue = 8.66

[[record]]
compound = "N=C(N)c1ccc(CNC(=O)[C@@H]2Cc3ccc(cc3)NC(=O)CN3CCN(CC3)CC(=O)Nc3ccc(cc3)C[C@@H](NC(=O)OCc3ccccc3)C(=O)N2)cc1 [Inhibitor 11]"
reportedvalue = 8.27

[[record]]
compound = "N=C(N)c1ccc(CNC(=O)[C@@H]2Cc3ccc(cc3)NC(=O)CCN3CCN(CCC(=O)Nc4ccc(cc4)C[C@@H](NC(=O)Cc4ccccc4)C(=O)N2)CC3)cc1 [Inhibitor 4]"
reportedvalue = 8.10


====

Listed next: entries and their corresponding pKi.
Molecular target: plasma kallikrein (Homo sapiens)
Assay: Enzyme-kinetic determination of inhibition constants, plasma kallikrein (Haemochrom PK)
Conditions: Tris-HCl buffer pH 8.0, Dixon, mean of at least two determinations
pKi: −log10 of the molar value.
assayEndpoint: pKi

[[record]]
compound = "N=C(N)c1ccc(CNC(=O)[C@@H]2Cc3ccc(cc3)NC(=O)CCN3CCN(CCC(=O)Nc4ccc(cc4)C[C@@H](NC(=O)OCc4ccccc4)C(=O)N2)CC3)cc1 [Inhibitor 5]"
studytarget = "plasma kallikrein (Homo sapiens)"
assayendpoint = "pKi"
reportedvalue = 5.16

[[record]]
compound = "CC1(C)C(=O)Nc2ccc(cc2)C[C@@H](C(=O)NCc2ccc(C(=N)N)cc2)NC(=O)[C@H](NS(=O)(=O)Cc2ccccc2)Cc2ccc(cc2)NC(=O)C(C)(C)N2CCN1CC2 [Inhibitor 7]"
studytarget = "plasma kallikrein (Homo sapiens)"
assayendpoint = "pKi"
reportedvalue = 7.11

[[record]]
compound = "CN(C)S(=O)(=O)N[C@@H]1Cc2ccc(cc2)NC(=O)CN2CCN(CC2)CC(=O)Nc2ccc(cc2)C[C@@H](C(=O)NCc2ccc(C(=N)N)cc2)NC1=O [Inhibitor 14]"
studytarget = "plasma kallikrein (Homo sapiens)"
assayendpoint = "pKi"
reportedvalue = 4.92

[[record]]
compound = "NCc1ccc(CNC(=O)[C@@H]2Cc3ccc(cc3)NC(=O)CCN3CCN(CCC(=O)Nc4ccc(cc4)C[C@@H](NS(=O)(=O)Cc4ccccc4)C(=O)N2)CC3)cc1 [Inhibitor 3]"
studytarget = "plasma kallikrein (Homo sapiens)"
assayendpoint = "pKi"
reportedvalue = 5.20


====

Molecular target: plasmin (Homo sapiens)
Assay: Enzyme-kinetic determination of inhibition constants, plasmin (Chromozym PL)
Format: biochemical
pKi: −log10 of the molar value.
assayEndpoint: pKi

[[record]]
smilesstructure = "N=C(N)c1ccc(CNC(=O)[C@@H]2Cc3ccc(cc3)NC(=O)CN3CCN(CC3)CC(=O)Nc3ccc(cc3)C[C@@H](NS(=O)(=O)NC3CCCCC3)C(=O)N2)cc1"
studytarget = "plasmin (Homo sapiens)"
reportedvalue = 9.49

[[record]]
smilesstructure = "N=C(N)c1ccc(CNC(=O)[C@@H]2Cc3ccc(cc3)NC(=O)CCN3CCN(CCC(=O)Nc4ccc(cc4)C[C@@H](N)C(=O)N2)CC3)cc1"
studytarget = "plasmin (Homo sapiens)"
reportedvalue = 7.89

[[record]]
smilesstructure = "CN(C)S(=O)(=O)N[C@@H]1Cc2ccc(cc2)NC(=O)CN2CCN(CC2)CC(=O)Nc2ccc(cc2)C[C@@H](C(=O)NCc2ccc(C(=N)N)cc2)NC1=O"
studytarget = "plasmin (Homo sapiens)"
reportedvalue = 8.23

[[record]]
smilesstructure = "N=C(N)c1ccc(CNC(=O)[C@@H]2Cc3ccc(cc3)NC(=O)CCN3CCN(CCC(=O)Nc4ccc(cc4)C[C@@H](NS(=O)(=O)NC4CCCCC4)C(=O)N2)CC3)cc1"
studytarget = "plasmin (Homo sapiens)"
reportedvalue = 10.28

[[record]]
smilesstructure = "NCc1ccc(CNC(=O)[C@@H]2Cc3ccc(cc3)NC(=O)CCN3CCN(CCC(=O)Nc4ccc(cc4)C[C@@H](NS(=O)(=O)Cc4ccccc4)C(=O)N2)CC3)cc1"
studytarget = "plasmin (Homo sapiens)"
reportedvalue = 8.91


====

Endpoint: Ki. System: Factor Xa (human) (Homo sapiens). Items follow.
Sequence (P00742 235-488 limits assumed): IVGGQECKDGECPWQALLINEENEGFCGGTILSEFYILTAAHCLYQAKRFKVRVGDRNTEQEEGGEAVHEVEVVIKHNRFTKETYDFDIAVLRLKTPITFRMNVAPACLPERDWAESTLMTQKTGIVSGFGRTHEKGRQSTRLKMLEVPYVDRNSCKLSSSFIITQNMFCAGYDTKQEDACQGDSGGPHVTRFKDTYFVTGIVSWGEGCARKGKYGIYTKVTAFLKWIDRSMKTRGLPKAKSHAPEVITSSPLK
Sequence (P00742 41-179 partner limits assumed): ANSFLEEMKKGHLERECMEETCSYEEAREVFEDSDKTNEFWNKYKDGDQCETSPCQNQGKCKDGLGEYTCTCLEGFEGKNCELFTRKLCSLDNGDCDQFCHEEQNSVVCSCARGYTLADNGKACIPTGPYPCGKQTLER
assayEndpoint: Ki

[[record]]
compound = "N=C(N)c1ccc(CNC(=O)[C@@H]2Cc3ccc(cc3)NC(=O)CCN3CCN(CCC(=O)Nc4ccc(cc4)C[C@@H](NC(=O)OCc4ccccc4)C(=O)N2)CC3)cc1 [Inhibitor 5]"
assayendpoint = "Ki"
reportedvalue = "47.4 µM"

[[record]]
compound = "CN(C)S(=O)(=O)N[C@@H]1Cc2ccc(cc2)NC(=O)CN2CCN(CC2)CC(=O)Nc2ccc(cc2)C[C@@H](C(=O)NCc2ccc(C(=N)N)cc2)NC1=O [Inhibitor 14]"
assayendpoint = "Ki"
reportedvalue = "134 µM"

[[record]]
compound = "N=C(N)c1ccc(CNC(=O)[C@@H]2Cc3ccc(cc3)NC(=O)CCN3CCN(CCC(=O)Nc4ccc(cc4)C[C@@H](NS(=O)(=O)NC4CCCCC4)C(=O)N2)CC3)cc1 [Inhibitor 1]"
assayendpoint = "Ki"
reportedvalue = "7.4 µM"

[[record]]
compound = "N=C(N)c1ccc(CNC(=O)[C@@H]2Cc3ccc(cc3)NC(=O)CN3CCN(CC3)CC(=O)Nc3ccc(cc3)C[C@@H](NC(=O)OCc3ccccc3)C(=O)N2)cc1 [Inhibitor 11]"
assayendpoint = "Ki"
reportedvalue = "104 µM"

[[record]]
compound = "CC1(C)C(=O)Nc2ccc(cc2)C[C@@H](C(=O)NCc2ccc(C(=N)N)cc2)NC(=O)[C@H](NS(=O)(=O)Cc2ccccc2)Cc2ccc(cc2)NC(=O)C(C)(C)N2CCN1CC2 [Inhibitor 7]"
assayendpoint = "Ki"
reportedvalue = "1.45 µM"

[[record]]
compound = "N=C(N)c1ccc(CNC(=O)[C@@H]2Cc3ccc(cc3)NC(=O)CCN3CCN(CCC(=O)Nc4ccc(cc4)C[C@@H](NC(=O)Cc4ccccc4)C(=O)N2)CC3)cc1 [Inhibitor 4]"
assayendpoint = "Ki"
reportedvalue = "188 µM"

[[record]]
compound = "N=C(N)c1ccc(CNC(=O)[C@@H]2Cc3ccc(cc3)NC(=O)CCN3CCN(CCC(=O)Nc4ccc(cc4)C[C@@H](N)C(=O)N2)CC3)cc1 [Inhibitor 6]"
assayendpoint = "Ki"
reportedvalue = "405 µM"

[[record]]
compound = "NCc1ccc(CNC(=O)[C@@H]2Cc3ccc(cc3)NC(=O)CCN3CCN(CCC(=O)Nc4ccc(cc4)C[C@@H](NS(=O)(=O)Cc4ccccc4)C(=O)N2)CC3)cc1 [Inhibitor 3]"
assayendpoint = "Ki"
reportedvalue = "78 µM"

[[record]]
compound = "N=C(N)c1ccc(CNC(=O)[C@@H]2Cc3ccc(cc3)NC(=O)CN3CCN(CC3)CC(=O)Nc3ccc(cc3)C[C@@H](NS(=O)(=O)NC3CCCCC3)C(=O)N2)cc1 [Inhibitor 2]"
assayendpoint = "Ki"
reportedvalue = "7.9 µM"


====

Biological target: Thrombin (bovine) (Bos taurus)
assayEndpoint: Ki (µM)

[[record]]
smilesstructure = "CN(C)S(=O)(=O)N[C@@H]1Cc2ccc(cc2)NC(=O)CN2CCN(CC2)CC(=O)Nc2ccc(cc2)C[C@@H](C(=O)NCc2ccc(C(=N)N)cc2)NC1=O"
reportedvalue = 4.96

[[record]]
smilesstructure = "N=C(N)c1ccc(CNC(=O)[C@@H]2Cc3ccc(cc3)NC(=O)CCN3CCN(CCC(=O)Nc4ccc(cc4)C[C@@H](NC(=O)OCc4ccccc4)C(=O)N2)CC3)cc1"
reportedvalue = 44

[[record]]
smilesstructure = "N=C(N)c1ccc(CNC(=O)[C@@H]2Cc3ccc(cc3)NC(=O)CN3CCN(CC3)CC(=O)Nc3ccc(cc3)C[C@@H](NS(=O)(=O)NC3CCCCC3)C(=O)N2)cc1"
reportedvalue = 16


====

Listed next: entries and their corresponding pKi.
Target: plasma kallikrein (Homo sapiens, UniProt P03952)
Sequence (P03952 391-638 limits assumed): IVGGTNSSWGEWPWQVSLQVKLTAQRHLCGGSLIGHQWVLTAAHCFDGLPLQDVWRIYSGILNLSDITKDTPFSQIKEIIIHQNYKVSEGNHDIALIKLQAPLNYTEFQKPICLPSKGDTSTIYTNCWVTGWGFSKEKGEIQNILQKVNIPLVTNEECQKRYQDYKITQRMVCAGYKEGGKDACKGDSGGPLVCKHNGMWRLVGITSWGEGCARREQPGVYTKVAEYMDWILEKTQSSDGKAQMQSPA
Sequence (P03952 20-390 partner limits assumed): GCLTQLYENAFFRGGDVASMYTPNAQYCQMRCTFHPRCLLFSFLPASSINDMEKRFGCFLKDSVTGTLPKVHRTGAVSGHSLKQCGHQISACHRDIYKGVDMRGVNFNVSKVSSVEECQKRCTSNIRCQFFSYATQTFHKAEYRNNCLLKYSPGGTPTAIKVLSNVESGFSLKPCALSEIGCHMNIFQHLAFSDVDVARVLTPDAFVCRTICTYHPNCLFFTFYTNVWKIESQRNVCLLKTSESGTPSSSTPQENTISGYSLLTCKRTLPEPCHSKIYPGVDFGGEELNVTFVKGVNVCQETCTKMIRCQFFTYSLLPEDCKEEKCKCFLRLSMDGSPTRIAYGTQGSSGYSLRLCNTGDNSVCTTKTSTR
Assay: Enzyme-kinetic determination of inhibition constants, plasma kallikrein (Haemochrom PK)
Conditions: Tris-HCl buffer pH 8.0, Dixon, mean of at least two determinations
Text: The Ki values are the mean value of at least two determinations.
pKi: −log10 of the molar value.
assayEndpoint: pKi

[[record]]
smilesstructure = "N=C(N)c1ccc(CNC(=O)[C@@H]2Cc3ccc(cc3)NC(=O)CCN3CCN(CCC(=O)Nc4ccc(cc4)C[C@@H](N)C(=O)N2)CC3)cc1"
reportedvalue = 4.61

[[record]]
smilesstructure = "N=C(N)c1ccc(CNC(=O)[C@@H]2Cc3ccc(cc3)NC(=O)CCN3CCN(CCC(=O)Nc4ccc(cc4)C[C@@H](NS(=O)(=O)NC4CCCCC4)C(=O)N2)CC3)cc1"
reportedvalue = 6.22

[[record]]
smilesstructure = "N=C(N)c1ccc(CNC(=O)[C@@H]2Cc3ccc(cc3)NC(=O)CCN3CCN(CCC(=O)Nc4ccc(cc4)C[C@@H](NC(=O)Cc4ccccc4)C(=O)N2)CC3)cc1"
reportedvalue = 5.10

[[record]]
smilesstructure = "N=C(N)c1ccc(CNC(=O)[C@@H]2Cc3ccc(cc3)NC(=O)CN3CCN(CC3)CC(=O)Nc3ccc(cc3)C[C@@H](NC(=O)OCc3ccccc3)C(=O)N2)cc1"
reportedvalue = 5.33

[[record]]
smilesstructure = "N=C(N)c1ccc(CNC(=O)[C@@H]2Cc3ccc(cc3)NC(=O)CN3CCN(CC3)CC(=O)Nc3ccc(cc3)C[C@@H](NS(=O)(=O)NC3CCCCC3)C(=O)N2)cc1"
reportedvalue = 6.50

